# credit: paper PMC12053652

Target: human creatine transporter (CRT) (Homo sapiens)
Construct: full-length wild-type
Sequence (P48029 whole entry): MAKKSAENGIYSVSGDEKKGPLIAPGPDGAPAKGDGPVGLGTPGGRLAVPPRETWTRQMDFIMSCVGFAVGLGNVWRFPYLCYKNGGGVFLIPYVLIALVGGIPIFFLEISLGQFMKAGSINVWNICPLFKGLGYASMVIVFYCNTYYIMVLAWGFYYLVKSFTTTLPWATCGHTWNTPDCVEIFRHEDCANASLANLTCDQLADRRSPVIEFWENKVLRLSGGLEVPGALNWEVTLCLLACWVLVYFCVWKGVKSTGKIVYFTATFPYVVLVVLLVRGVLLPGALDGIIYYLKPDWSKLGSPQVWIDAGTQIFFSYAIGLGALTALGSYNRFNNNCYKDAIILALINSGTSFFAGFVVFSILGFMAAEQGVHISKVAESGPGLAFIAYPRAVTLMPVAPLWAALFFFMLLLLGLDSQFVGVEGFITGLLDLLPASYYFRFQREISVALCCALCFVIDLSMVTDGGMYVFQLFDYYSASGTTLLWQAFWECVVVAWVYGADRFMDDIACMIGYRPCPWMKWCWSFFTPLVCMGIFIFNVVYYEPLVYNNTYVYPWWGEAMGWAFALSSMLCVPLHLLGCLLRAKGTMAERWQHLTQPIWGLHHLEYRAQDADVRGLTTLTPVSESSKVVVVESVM
Experiment: cryo-EM structure ([…] Å); IC50 from […]creatine uptake inhibition in HEK293 cells
Quantity measured: pIC50
API: returns pIC50 as number; meaning -log10 of concentration in mol/L.

Prompt: pIC50 for `N=C(N)NCCC(=O)O` ?
Completion: 4.28
